Experiment: Thermo Scientific Acclaim RSLC 120 C18, 100 × 2.1 mm, 2.2 µm, 30 °C; A: 90% water + 10% methanol + 0.01% formic acid + 5 mM ammonium formate; B: methanol + 0.01% formic acid + 5 mM ammonium formate; gradient (min/%B) 0.1/1 3/39 14/99.9 16/99.9
Conditions: stereoisomer not certain
API: label(entry) gives criterion met if the entry's LC retention time is strictly smaller than 8 min; on equality or larger values it gives criterion not met.

Solved cases below.
compound	assignedLabel
Cc1ccc(NC(=O)NC(C)(C)c2ccccc2)cc1	criterion not met
CCCc1cc(OC)c(CCN)cc1OC	criterion met
COP(=S)(OC)Oc1ccc(SC)c(C)c1	criterion not met
CC12CCC(=O)C=C1CCC1C2CCC2(C)C(C(=O)COC(=O)CCc3ccccc3)CCC12 (configuration not stated)	criterion not met

input: Lab note: LC retention time threshold 8 min. Does this compound come in strictly under it? CCOP(=O)(OCC)SCSCC
output: criterion not met

input: And what about the compound CC(C)(C)NCC(O)c1ccc(O)c(CO)c1 (configuration not stated) ?
output: criterion met

---

Test: Thermo Scientific Acclaim RSLC 120 C18, 100 × 2.1 mm, 2.2 µm, 30 °C; A: 90% water + 10% methanol + 0.01% formic acid + 5 mM ammonium formate; B: methanol + 0.01% formic acid + 5 mM ammonium formate; gradient (min/%B) 0.1/1 3/39 14/99.9 16/99.9
Settings: stereoisomer not certain
Consider the following compounds and their measured LC retention time readings.
Return type: number; implicit unit min.

compound	unitsSymbol	LC retention time
CC(=O)Nc1ccc(S(=O)(=O)Nc2nccs2)cc1	min	4.24
Cc1cccc(C)c1NC(=O)C1CCCCN1C (configuration not stated)	min	4.66
CCOC(=O)C(CCc1ccccc1)NC(C)C(=O)N1C(C(=O)O)CC2CCCC21 (configuration not stated)	min	8.56
NC(=O)N=C(N)N	min	1.31
CCCNCC(O)COc1ccccc1C(=O)CCc1ccccc1 (configuration not stated)	min	7.81
CCCCCCCCCc1ccc(OCCOCCO)cc1	min	13.8
COC12CCC3(CC1C(C)(O)C(C)(C)C)C1Cc4ccc(O)c5c4C3(CCN1CC1CC1)C2O5 (configuration not stated)	min	7.96
CCOC(=O)C1=CC(OC(CC)CC)C(NC(C)=O)C(N)C1 (configuration not stated)	min	6.76
CN(C)CCc1c[nH]c2ccc(O)cc12	min	2.82
NCCCCC(NC(CCc1ccccc1)C(=O)O)C(=O)N1CCCC1C(=O)O (configuration not stated)	min	3.98

input: Could you tell me which LC retention time is on file for CCN(CC)CCOC(=O)c1ccc(N)cc1 ?
output: 3.21

input: Next compound: CCN(CC)CCN1c2ccccc2Sc2ccccc21
output: 7.76

input: Same again, this time with Cc1occc1C(=O)Nc1ccccc1
output: 7.59

input: Repeat with CC(CCc1ccccc1)NCC(O)c1ccc(O)c(C(N)=O)c1 (configuration not stated)
output: 5.74

---

Consider the following compounds and their measured LC retention time readings.
Assay: Thermo Scientific Acclaim RSLC 120 C18, 100 × 2.1 mm, 2.2 µm, 30 °C; A: 90% water + 10% methanol + 0.01% formic acid + 5 mM ammonium formate; B: methanol + 0.01% formic acid + 5 mM ammonium formate; gradient (min/%B) 0.1/1 3/39 14/99.9 16/99.9
Conditions: stereoisomer not certain
Your reply should be a number followed by the unit it is expressed in.

COc1ccc2[nH]c(C)c(CCN(C)C)c2c1 4.19 min
CCN(CCO)CCn1c(Cc2ccccc2)nc2c1c(=O)n(C)c(=O)n2C 5.24 min
CN1CCC(N(Cc2ccccc2)c2ccccc2)CC1 7.77 min
CCCc1nn(C)c2c(=O)[nH]c(-c3cc(C(=O)CN4CCN(CC)CC4)ccc3OCC)nc12 7.01 min
CNC(=O)Oc1cc(C)cc(C)c1 7.78 min

Now for a further compound.
input: Please look up its LC retention time: COC(=O)Nc1cccc(OC(=O)Nc2cccc(C)c2)c1
output: 8.75 min

---

Assay: Thermo Scientific Acclaim RSLC 120 C18, 100 × 2.1 mm, 2.2 µm, 30 °C; A: 90% water + 10% methanol + 0.01% formic acid + 5 mM ammonium formate; B: methanol + 0.01% formic acid + 5 mM ammonium formate; gradient (min/%B) 0.1/1 3/39 14/99.9 16/99.9
Details: stereoisomer not certain
readoutType: LC retention time (min)
State just the number; it will be interpreted in min.

Here are 5 compounds together with their reported answers.
compound	unitsSymbol	LC retention time
OCCOCCN1CCN(C2=Nc3ccccc3Sc3ccccc32)CC1	min	7.26
CN(C)CCC=C1c2ccccc2COc2ccccc21	min	7.01
COC(=O)C1=COC(C)C2CN3CCc4c([nH]c5ccccc45)C3CC12 (configuration not stated)	min	6.66
COc1ccc2cc(C(C)C(=O)O)ccc2c1 (configuration not stated)	min	8.99
CC(=O)OC1CCC2C3CCC4CC(=O)C=C(C)C4(C)C3CCC12C (configuration not stated)	min	12.5

input: Bench note: what LC retention time did c1cc2c(c(NC3=NCCN3)c1)CCC2 show?
output: 4.76

input: Moving on to CCN(C(C)=O)c1cccc(-c2ccnc3c(C#N)cnn23)c1
output: 6.61

input: What about CCN(CC)CCNC(=O)COc1ccc(OC)cc1 ?
output: 4.31

input: And for Cc1ccccc1N1CCN(CCc2nnc3n2CCCC3)CC1 ?
output: 5.66

input: Check CP(=O)(O)CCC(N)C(=O)O (configuration not stated) too.
output: 1.44

input: Quick one: O=C(c1cccc2ccccc12)c1cn(CCN2CCOCC2)c2ccccc12
output: 9.88

input: Query COc1ccc(CC2c3cc(OC)c(OC)cc3CCN2C)cc1OC (configuration not stated) next
output: 4.71

input: Again, but for Cc1cnc(C(=O)NCCc2ccc(S(=O)(=O)NC(=O)NC3CCCCC3)cc2)cn1
output: 8.11

input: Then what about the compound CCCCC(CC)COC(=O)C(C#N)=C(c1ccccc1)c1ccccc1 (configuration not stated) ?
output: 13.4

---

Assay: Thermo Scientific Acclaim RSLC 120 C18, 100 × 2.1 mm, 2.2 µm, 30 °C; A: 90% water + 10% methanol + 0.01% formic acid + 5 mM ammonium formate; B: methanol + 0.01% formic acid + 5 mM ammonium formate; gradient (min/%B) 0.1/1 3/39 14/99.9 16/99.9
Details: stereoisomer not certain
Returns label 1 if the recorded LC retention time is greater than or equal to 7 min, and label 0 otherwise.

Past entries and their recorded results:
molecule	assignedLabel
CNc1c(C)n(C)n(-c2ccccc2)c1=O	label 0
CC(CN(C)C)CN1c2ccccc2Sc2ccc(C#N)cc21 (stereo not given)	label 1
CSC1=NC(C)(c2ccccc2)C(=O)N1Nc1ccccc1 (stereo not given)	label 1

input: Answer whether LC retention time of COc1cc2c(c(OC)c1OC)-c1ccc(OC)c(=O)cc1C(NC(C)=O)CC2 (stereo not given) is greater than or equal to 7 min.
output: label 0

input: And the next one, C=CC(N)CCC(=O)O (stereo not given) ?
output: label 0

input: Also Cn1c(=O)c2c(ncn2CC(O)CO)n(C)c1=O (stereo not given) ?
output: label 0

input: Try this molecule next: CCOP(=S)(OCC)SCS(=O)C(C)(C)C (stereo not given)
output: label 1

input: What do you have for COc1ccc(-c2ccccc2)cc1NNC(=O)OC(C)C ?
output: label 1

input: Input COc1cc(OC)nc(Oc2cccc(Oc3nc(OC)cc(OC)n3)c2C(=O)O)n1
output: label 1

---

Test: Thermo Scientific Acclaim RSLC 120 C18, 100 × 2.1 mm, 2.2 µm, 30 °C; A: 90% water + 10% methanol + 0.01% formic acid + 5 mM ammonium formate; B: methanol + 0.01% formic acid + 5 mM ammonium formate; gradient (min/%B) 0.1/1 3/39 14/99.9 16/99.9
Details: stereoisomer not certain
Field: label. Allowed values: 1 (yes) (LC retention time < 7 min) or 0 (no) (LC retention time >= 7 min).

Here are 2 compounds together with their reported answers.
compound	assignedLabel
CNC(=O)Oc1cccc2c1OC(C)(C)C2O (stereo unspecified)	1 (yes)
C=CCN1CCCC1CNC(=O)c1cc2n[nH]nc2cc1OC (stereo unspecified)	1 (yes)

input: Record CCCCCn1cc(C(=O)C23CC4CC(CC(C4)C2)C3)c2ccccc21 : is its LC retention time strictly below 7 min?
output: 0 (no)

input: Same question for CNCCCC1c2ccccc2C=Cc2ccccc21 please.
output: 0 (no)

input: // same read-out, input: COC(C)C(O)(C(=O)OCC1=CC[N+]2([O-])CCC(O)C12)C(C)C (stereo unspecified)
output: 1 (yes)

---

Assay: Thermo Scientific Acclaim RSLC 120 C18, 100 × 2.1 mm, 2.2 µm, 30 °C; A: 90% water + 10% methanol + 0.01% formic acid + 5 mM ammonium formate; B: methanol + 0.01% formic acid + 5 mM ammonium formate; gradient (min/%B) 0.1/1 3/39 14/99.9 16/99.9
Settings: stereoisomer not certain
Collected log10 of LC retention time values appear next to each entry.
Note: values are log10 of LC retention time expressed in min.

Worked set:
molecule	measValue
O=C1NC(=O)C2CC=CCC12 (stereo not given)	0.64
CC1=NNC(=O)N(N=Cc2cccnc2)C1	0.60

input: # get_value(readout='log10 of LC retention time', item= COC(=O)C(NC(=O)c1nn(CC2CCCCC2)c2ccccc12)C(C)C (stereo not given) )
output: 1.09

input: Same lookup for CCCNC(C)C(=O)Nc1ccccc1C (stereo not given) , please.
output: 0.67

input: Now try CC(C)c1cc(Oc2ccccc2)cc(C(C)C)c1NC(=S)NC(C)(C)C .
output: 1.11

input: Now the same for CCCN(CCC)c1c([N+](=O)[O-])cc(S(N)(=O)=O)cc1[N+](=O)[O-]
output: 1.01

input: Same again, this time with NCC(O)COc1ccccc1C(=O)CCc1ccccc1.O=C(O)C(=O)O (stereo not given)
output: 0.85

input: Please do the same for Cc1cnc(NC(=O)C2=C(O)c3ccccc3S(=O)(=O)N2C)s1 as well.
output: 0.85

input: Also CN(C)c1ccc(C(c2ccccc2)c2ccc(N(C)C)cc2)cc1 , if possible.
output: 1.14

input: And then CC(O)CCCn1cc(C(=O)c2cccc3ccccc23)c2ccccc21 (stereo not given) , what is it?
output: 1.00

input: Please give the result for CC(O)CN1CCN(CC(=O)O)CCN(CC(=O)O)CCN(CC(=O)O)CC1 (stereo not given) too.
output: 0.12

input: Okay, and CC1C=CC=CCCC=CC=CC=CC=CC(OC2OC(C)C(O)C(N)C2O)CC2OC(O)(CC(O)C(O)CCC(O)CC(O)CC(O)CC(=O)OC(C)C(C)C1O)CC(O)C2C(=O)O (stereo not given) ?
output: 1.01

input: COCCN(C(=O)CS(=O)(=O)O)c1c(C)cccc1C , same question.
output: 0.74

input: Could you do the same for COP(=S)(OC)SCOC(C)=O , please?
output: 0.85

input: Try this molecule next: CC(Cc1ccccc1)NCCC#N (stereo not given)
output: 0.62

input: Moving on to the next molecule: CON=C(C(=O)NC1C(=O)N2C(C(=O)O)=C(CSC(=O)c3ccco3)CSC12)c1csc(N)n1 (stereo not given)
output: 0.74

input: Then CC(COc1ccccc1)NC(C)C(O)c1ccc(O)cc1 (stereo not given) ?
output: 0.72

input: Then what about the molecule CCCCOCCOCCSC#N ?
output: 0.91

input: Let us now turn to CCNC(=O)NC(=O)C(C#N)=NOC
output: 0.75

input: Likewise for CC(CCc1ccc(O)cc1)NCCc1ccc(O)c(O)c1 (stereo not given) ?
output: 0.62
